# Tested on: HEL
# measurement.description: Cytotoxicity against HEL cells assessed as inhibition of cell growth incubated under dark condition in presence of N-tert-butyl-3-[[5-methyl-2-(4-piperazin-1-ylanilino)pyrimidin-4-yl]amino]benzenesulfonamide
# Type: functional, cell-based
# experimental.context: Homo sapiens
measured.attribute: pIC50
Answers are plain numbers, as −log10 of the molar value.

Which value of pIC50 has been reported for O=C(Nc1c[nH]nc1-c1nc2ccc(CN3CCOCC3)cc2[nH]1)NC1CC1 in the records?
5.85

====

# measurement.description: Stability of compound in human plasma measured after 24 hrs
# Assay type: ADME, cell-free
# experimental.context: read-out: Stability
measured.attribute: remaining at 24 h

What does the record list as remaining at 24 h for CCN(CC)c1ccc2c(COC(=O)Oc3c(COC(=O)N4CCN(c5ccc(Nc6ncc(C)c(Nc7cccc(S(=O)(=O)NC(C)(C)C)c7)n6)cc5)CC4)cc(C)cc3COC(=O)n3cc(NC(=O)NC4CC4)c(-c4nc5cc(CN6CCOCC6)ccc5[nH]4)n3)cc(=O)oc2c1 ?
> 78.3%

FYI, the data here is from ChEMBL document CHEMBL5385890.
